Study target: KAT2A (Homo sapiens, UniProt Q92830)
Sequence (Q92830 whole entry): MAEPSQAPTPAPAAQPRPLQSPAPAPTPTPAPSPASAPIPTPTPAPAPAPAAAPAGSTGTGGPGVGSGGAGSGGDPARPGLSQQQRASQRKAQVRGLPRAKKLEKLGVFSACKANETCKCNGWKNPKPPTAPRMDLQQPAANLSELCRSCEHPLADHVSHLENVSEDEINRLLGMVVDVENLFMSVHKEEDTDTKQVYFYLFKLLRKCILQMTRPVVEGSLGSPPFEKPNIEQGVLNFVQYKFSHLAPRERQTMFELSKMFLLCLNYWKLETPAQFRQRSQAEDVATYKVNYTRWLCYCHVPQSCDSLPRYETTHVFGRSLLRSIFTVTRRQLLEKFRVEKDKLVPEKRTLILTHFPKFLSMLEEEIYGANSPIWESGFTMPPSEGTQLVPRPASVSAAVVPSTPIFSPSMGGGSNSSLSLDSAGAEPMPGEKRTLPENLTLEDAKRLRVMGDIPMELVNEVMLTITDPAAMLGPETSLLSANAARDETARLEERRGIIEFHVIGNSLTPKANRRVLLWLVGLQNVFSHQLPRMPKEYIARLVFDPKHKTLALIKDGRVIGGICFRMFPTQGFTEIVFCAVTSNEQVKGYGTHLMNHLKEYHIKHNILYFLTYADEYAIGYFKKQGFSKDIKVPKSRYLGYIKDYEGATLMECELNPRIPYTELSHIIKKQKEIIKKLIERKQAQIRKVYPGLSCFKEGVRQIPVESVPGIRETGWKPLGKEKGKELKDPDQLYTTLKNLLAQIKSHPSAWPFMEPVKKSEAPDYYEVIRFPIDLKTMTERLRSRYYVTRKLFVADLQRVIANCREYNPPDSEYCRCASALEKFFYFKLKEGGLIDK
Test name: KAT2A degradation, Western Blot (Jess), NCI-H1048 cells
Type: cell-based
Set-up: degrader, Western blot (Jess)
Measurement context: NCI-H1048 cells, KAT2A, 24 h, Western Blot, vs DMSO; read-out: KAT2A NCI-H1048 DC50
Item-by-item account of DC50

# count of solved cases: 5
Cc1cc(N2CCC3(CCN(C(=O)c4ccc([C@H]5C[C@@H](Nc6cnn(C)c(=O)c6Br)CN(C)C5)cc4)CC3)CC2)ccc1OC1CCC(=O)NC1=O (stereo partly drawn) [Compound 364] | < 1 nM
Cc1c(N[C@@H]2C[C@H](c3ccc(CN4CCN(c5ccc6c(c5)C(=O)N(C5CCC(=O)NC5=O)C6=O)CC4)cc3)CN(C)C2)cnn(C)c1=O (stereo partly drawn) [Compound 303] | < 1 nM
Cc1cc(N2CCC3(CCN(C(=O)c4ccc([C@H]5C[C@@H](Nc6cnn(C)c(=O)c6Br)CN(C)C5)cc4)CC3)CC2)ccc1N1CCC(=O)NC1=O [Compound 395] | < 1 nM
CN1C[C@H](Nc2cnn(C)c(=O)c2Br)C[C@H](c2ccc(C(=O)N3CCN(c4ccc5nc(C6CCC(=O)NC6=O)ccc5c4)CC3)cc2)C1 (stereo partly drawn) [Compound 384] | < 1 nM
Cn1ncc(N[C@@H]2C[C@H](c3ccc(C(=O)N4CCC5(CC4)CCN(c4ccc(C6CCC(=O)NC6=O)cc4)CC5)cc3)CN(CC3CC3)C2)c(Br)c1=O (stereo partly drawn) [Compound 425] | < 1 nM

In plain terms, Cc1cc(N2CCN(C3CN(C(=O)c4ccc([C@H]5C[C@@H](Nc6cnn(C)c(=O)c6Br)CN(C)C5)cc4)C3)CC2)ccc1C1CCC(=O)NC1=O (stereo partly drawn) [Compound 311] has a documented DC50 of 1 to 30 nM

====

Below is a list of entries, each paired with its recorded DC50 value.
Study target: UniProt:Q92830
Test name: KAT2A degradation, Western Blot (Jess), MOLM-13 cells
Format: cell-based
Parameters: degrader, Western blot
Measurement context: MOLM-13 cells, KAT2A, 24 h, Western Blot, vs DMSO; read-out: KAT2A MOLM-13 DC50

Below: 5 molecules and their reported DC50.
CN1C[C@H](Nc2cnn(C)c(=O)c2Br)C[C@H](c2ccc(C(=O)N3CCN(Cc4ccc(Oc5cccc6c5C(=O)N(C5CCC(=O)NC5=O)C6=O)cc4)CC3)cc2)C1 (stereo partly shown) | < 1 nM
CN1C[C@H](Nc2cnn(C)c(=O)c2Br)C[C@H](c2ccc(CN3CCC4(CC3)CN(c3ccc(C5CCC(=O)NC5=O)cc3)C4)cc2)C1 (stereo partly shown) | 1 to 30 nM
CN1C[C@H](Nc2cnn(C)c(=O)c2Br)C[C@H](c2ccc(C(=O)N3CCC4(CC3)CCN(c3ccc(C5CCC(=O)NC5=O)c(F)c3)CC4)cc2)C1 (stereo partly shown) | < 1 nM
CN1C[C@H](Nc2cnn(C)c(=O)c2Br)C[C@H](c2ccc(C(=O)N3CCN(Cc4ccc5c(c4)C(=O)N(C4CCC(=O)NC4=O)C5=O)CC3)cc2)C1 (stereo partly shown) | < 1 nM
CN1C[C@H](Nc2cnn(C)c(=O)c2Br)C[C@H](c2ccc(C(=O)N3CCC(Oc4cccc5c4C(=O)N(C4CCC(=O)NC4=O)C5=O)CC3)cc2)C1 (stereo partly shown) | 1 to 30 nM

// recorded DC50 for CN1C[C@H](Nc2cnn(C)c(=O)c2Br)C[C@H](c2ccc(CN3CCN(c4ccc5c(c4)oc(=O)n5C4CCC(=O)NC4=O)CC3)cc2)C1 (stereo partly shown) : < 1 nM

Entry CN1C[C@H](Nc2cnn(C)c(=O)c2Br)C[C@H](c2ccc(C(=O)N3CC4(CN(Cc5ccc6c(c5)C(=O)N(C5CCC(=O)NC5=O)C6=O)C4)C3)cc2)C1 (stereo partly shown) ; DC50 = 1 to 30 nM

Recorded result, CN1C[C@H](Nc2cnn(C)c(=O)c2Br)C[C@H](c2ccc(C(=O)N3CCN(c4cccc5c4C(=O)N(C4CCC(=O)NC4=O)C5=O)CC3)cc2)C1 (stereo partly shown) [Compound 27] , DC50: < 1 nM

Item: CN1C[C@H](Nc2cnn(C)c(=O)c2Br)C[C@H](c2ccc(C(=O)N3CCN(Cc4cccc5c4CN(C4CCC(=O)NC4=O)C5=O)CC3)cc2)C1 (stereo partly shown) | DC50: 1 to 30 nM

DC50 measured on CN1C[C@H](Nc2cnn(C)c(=O)c2Br)C[C@H](c2ccc(CN3CCC(Oc4ccc(C5CCC(=O)NC5=O)cc4F)CC3)cc2)C1 (stereo partly shown) = < 1 nM

Lab book: DC50 of CN1C[C@H](Nc2cnn(C)c(=O)c2Br)C[C@H](c2ccc(C(=O)NCCCCCCOCCOCC(=O)Nc3cccc4c3C(=O)N(C3CCC(=O)NC3=O)C4=O)cc2)C1 (stereo partly shown) noted as 1 to 30 nM
